EC50, HEK-Blue IL18R reporter assay by entry:
# EXPERIMENTAL TARGET: T1, IL-18R on HEK-Blue IL18R reporter cells (InvivoGen, #hkb-hmi118) (UniProt Q13478 19-541; O95256 20-599, limits assumed)
# T1 sequence (looked up) 1: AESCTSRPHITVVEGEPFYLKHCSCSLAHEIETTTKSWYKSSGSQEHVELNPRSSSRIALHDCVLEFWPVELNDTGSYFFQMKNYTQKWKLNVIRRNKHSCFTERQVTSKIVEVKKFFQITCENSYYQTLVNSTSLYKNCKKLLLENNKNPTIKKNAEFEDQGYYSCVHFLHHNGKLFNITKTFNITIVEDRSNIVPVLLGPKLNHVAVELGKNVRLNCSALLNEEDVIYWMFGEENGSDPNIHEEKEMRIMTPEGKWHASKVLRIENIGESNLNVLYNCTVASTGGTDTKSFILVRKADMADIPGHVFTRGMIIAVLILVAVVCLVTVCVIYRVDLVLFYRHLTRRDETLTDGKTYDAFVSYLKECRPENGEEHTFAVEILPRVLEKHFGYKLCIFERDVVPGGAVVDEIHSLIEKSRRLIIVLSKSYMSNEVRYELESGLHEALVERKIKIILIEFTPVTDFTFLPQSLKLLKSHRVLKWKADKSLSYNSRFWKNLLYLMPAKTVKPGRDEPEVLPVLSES
# T1 sequence (looked up) 2: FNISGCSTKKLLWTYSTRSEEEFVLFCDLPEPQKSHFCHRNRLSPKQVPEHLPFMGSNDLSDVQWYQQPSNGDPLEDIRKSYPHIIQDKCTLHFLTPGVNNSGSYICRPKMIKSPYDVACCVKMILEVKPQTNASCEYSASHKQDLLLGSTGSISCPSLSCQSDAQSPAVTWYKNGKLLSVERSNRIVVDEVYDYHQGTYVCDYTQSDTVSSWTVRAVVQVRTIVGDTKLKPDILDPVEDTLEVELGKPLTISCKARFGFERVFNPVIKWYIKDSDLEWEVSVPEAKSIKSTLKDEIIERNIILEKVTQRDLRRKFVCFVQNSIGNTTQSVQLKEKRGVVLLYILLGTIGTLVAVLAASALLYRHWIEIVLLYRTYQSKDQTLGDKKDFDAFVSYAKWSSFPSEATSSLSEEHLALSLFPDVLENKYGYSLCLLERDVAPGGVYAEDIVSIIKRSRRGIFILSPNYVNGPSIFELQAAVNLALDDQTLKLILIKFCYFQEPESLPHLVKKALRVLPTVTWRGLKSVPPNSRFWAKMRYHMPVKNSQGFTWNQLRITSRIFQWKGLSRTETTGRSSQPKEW
# ASSAY OVERVIEW: cell-based or functional assay
Report the figure in pM without appending any unit label.

Illustrative cases are given below, each with its answer.
Field EC50, HEK-Blue IL18R reporter assay (entry IL-18 polypeptide C146 (SEQ ID NO: 68; V11I, C38A, M51G, K53A, C76A, C127A) (ligand) YFGKLESKLSIIRNLNDQVLFIDQGNRPLFEDMTDSDARDNAPRTIFIISGYADSQPRGMAVTISVKCEKISTLSAENKIISFKEMNPPDNIKDTKSDIIFFQRSVPGHDNKMQFESSSYEGYFLAAEKERDLFKLILKKEDELGDRSIMFTVQNED ) reads 0.8

Sure, the documented EC50, HEK-Blue IL18R reporter assay for IL-18 polypeptide C157 (V11I, C38A, K53A, C76A, C127A, D132A) (ligand) YFGKLESKLSIIRNLNDQVLFIDQGNRPLFEDMTDSDARDNAPRTIFIISMYADSQPRGMAVTISVKCEKISTLSAENKIISFKEMNPPDNIKDTKSDIIFFQRSVPGHDNKMQFESSSYEGYFLAAEKERALFKLILKKEDELGDRSIMFTVQNED is 1.95

In the following, a different binder is considered.
Notebook: IL-18 polypeptide of SEQ ID NO: 34 (E06K, K53A, S55A) (ligand) YFGKLKSKLSVIRNLNDQVLFIDQGNRPLFEDMTDSDCRDNAPRTIFIISMYADAQPRGMAVTISVKCEKISTLSCENKIISFKEMNPPDNIKDTKSDIIFFQRSVPGHDNKMQFESSSYEGYFLACEKERDLFKLILKKEDELGDRSIMFTVQNED , EC50, HEK-Blue IL18R reporter assay read as 272
